Reference source: patent US9522886B2

- system_name: human CB2 receptors (Homo sapiens (Human), UniProt P34972)
- Sequence (P34972 whole entry): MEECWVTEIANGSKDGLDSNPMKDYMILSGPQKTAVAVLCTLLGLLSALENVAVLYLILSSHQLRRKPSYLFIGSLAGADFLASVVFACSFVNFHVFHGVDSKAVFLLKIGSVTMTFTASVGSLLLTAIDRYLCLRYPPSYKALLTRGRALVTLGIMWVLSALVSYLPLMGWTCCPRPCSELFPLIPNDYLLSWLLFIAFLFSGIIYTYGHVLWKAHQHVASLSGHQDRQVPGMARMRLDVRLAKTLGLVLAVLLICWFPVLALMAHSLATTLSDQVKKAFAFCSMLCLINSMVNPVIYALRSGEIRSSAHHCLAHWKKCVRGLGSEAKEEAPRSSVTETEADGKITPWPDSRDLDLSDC
- experiment_summary: cAMP assay, CHO cells expressing human CB2 receptors
- Format: cell-based
- measurement_conditions: functional cAMP assay, CHO cells expressing human CB2; read-out: human CB2 EC50
Items are presented alongside their recorded EC50.
Give a bare numeral; the unit nM is implied.

Consider the reported EC50 for these compounds:
INSERT INTO measurements (compound, reported) VALUES
  ('COC(=O)CC1(NC(=O)c2ccc(N3CC(F)(F)C3)c(OCC3CC3)n2)CCOCC1 [Example 52]', 74.9),
  ('NC(=O)CC(NC(=O)c1ccc(C2CC2)c(OCC2CC2)n1)C1CC1 (single isomer, unassigned; (-)) [Example 27]', 1.4),
  ('NC(=O)CC1(NC(=O)c2ccc(C3(F)COC3)c(OCC3CC3)n2)COC1 [Example 93]', 14.9);

Turning now to a further compound:
Per the records, this compound ( NC(=O)CC1(NC(=O)c2ccc(C3(O)CCC3)c(OCC3CC3)n2)COC1 [Example 90] ) has EC50 equal to 8.8
